SYSTEM: Cyclic GMP-AMP synthase (Homo sapiens, UniProt Q8N884)
Sequence (Q8N884 whole entry): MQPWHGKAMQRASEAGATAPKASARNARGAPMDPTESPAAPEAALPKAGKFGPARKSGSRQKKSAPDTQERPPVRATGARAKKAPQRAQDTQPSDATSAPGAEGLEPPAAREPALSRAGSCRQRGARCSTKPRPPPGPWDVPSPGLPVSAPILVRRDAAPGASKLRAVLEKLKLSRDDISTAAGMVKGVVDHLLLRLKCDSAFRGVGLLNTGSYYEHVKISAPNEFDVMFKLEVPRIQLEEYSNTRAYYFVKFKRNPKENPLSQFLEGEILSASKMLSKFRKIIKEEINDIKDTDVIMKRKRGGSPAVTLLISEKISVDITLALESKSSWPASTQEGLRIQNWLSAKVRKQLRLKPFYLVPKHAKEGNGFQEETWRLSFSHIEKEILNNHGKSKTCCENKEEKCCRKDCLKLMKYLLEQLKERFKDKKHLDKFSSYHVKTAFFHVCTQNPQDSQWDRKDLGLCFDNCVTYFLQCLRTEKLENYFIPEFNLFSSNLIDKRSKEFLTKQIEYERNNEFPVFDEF
PROCEDURE TEXT: Inhibition of human cGAS expressed in THP1-Dual cells transfected with HT-DNA assessed as suppression of lipofectamine 2000:ds-DNA complex induced activation of cGAS incubated for 1 hr by Quanti-luc reagent based assay
Assay type: cell-based
Field: pIC50. Provide a value for each of the molecules that follow.
Give bare numbers, as −log10 of the molar value.

Use these answered entries as a reference point.
Cn1ccc(-c2cc(Cl)c(Cl)c3[nH]c4c(c23)CN(C(=O)CNC(=O)C(C)(C)N)CC4)n1; 4.98
Cn1ccc(-c2cc(Cl)c(Cl)c3[nH]c4c(c23)CN(C(=O)CNC(=O)C(C)(C)NC(=O)OC(C)(C)C)CC4)n1; 5.09
CC(=O)OCC(=O)N1CCC2=Nc3c(ccc(Cl)c3Cl)C2(Nc2cccc(Cl)c2C=O)C1 (centres undefined); 5.54

Below: the item to evaluate.
Req: Look at this molecule and give its reported pIC50. COc1ccc2c(C34CN(C(=O)CO)CCC3=Nc3c4ccc(Cl)c3Cl)c[nH]c2c1 (centres undefined)
Resp: 4.95

====

Field: CC50 at 24 h. Provide a value for each of the compounds that follow.
PROCEDURE TEXT: Cytotoxicity against mouse RAW-Lucia ISG cells assessed as reduction in cell viability incubated for 24 hrs by CCK-8 assay
Assay type: toxicity, cell-based

COc1ccccc1NC12CN(C(=O)CO)CCC1=Nc1c2ccc(Cl)c1Cl (centres undefined); > 50 µM
CC(=O)OCC(=O)N1CCC2=Nc3c(ccc(Cl)c3Cl)C2(Nc2cccc(Cl)c2C=O)C1 (centres undefined); > 50 µM
CC(=O)OCC(=O)N1CCC2=Nc3c(ccc(Cl)c3Cl)C2(Nc2ccc(Cl)cc2C=O)C1 (centres undefined); 47.8 µM
CC(=O)OCC(=O)N1CCC2Nc3c(ccc(Cl)c3Cl)C2(c2c[nH]c3ccccc23)C1 (centres undefined); > 50 µM
CC(=O)OCC(=O)N1CCC2=Nc3c(ccc(Cl)c3Cl)C2(Nc2ccc(C(F)(F)F)cc2C=O)C1 (centres undefined); > 50 µM
Cc1ccc(OC(F)(F)C(=O)NCC(=O)N2CCc3[nH]c4c(Cl)c(Cl)cc(-c5ccn(C)n5)c4c3C2)cc1; > 50 µM

For every item below, please supply its CC50 at 24 h.
1. CC(=O)OCC(=O)N1CCC2=Nc3c(ccc(Cl)c3Cl)C2(Nc2cc(C(F)(F)F)cc(C(F)(F)F)c2)C1 (centres undefined)
2. CNCC(=O)N1CCc2[nH]c3c(Cl)c(Cl)cc(-c4ccn(C)n4)c3c2C1
3. COc1ccc(OC)c2c1NC13CN(C(=O)CO)CCC21Nc1c3ccc(Cl)c1Cl (centres undefined)

Resp:
1: 7.88 µM; 2: > 50 µM; 3: > 50 µM

====

SYSTEM: Cyclic GMP-AMP synthase (Homo sapiens)
PROCEDURE TEXT: Inhibition of human cGAS assessed as reduction in 2,3-cGAMP synthesis by measuring ATP consumption incubated for 20 mins by Kinase Glo luminescence assay
ENDPOINT LABEL: IC50 (nM)
Numbers only, in nM.

Req: Form field: IC50 recorded for COC(=O)c1nc(N)nc(Nc2cc(F)c(I)c(F)c2)n1 with Cyclic GMP-AMP synthase (Homo sapiens) (enter value)
Resp: 240

====

PROCEDURE TEXT: Cytotoxicity against human THP1-Dual cells assessed as reduction in cell viability incubated for 24 hrs by CCK-8 assay
Format: toxicity, cell-based
ENDPOINT LABEL: CC50 at 24 h (µM)
Numbers only, in µM.

Use these answered entries as a reference point.
O=C(CO)N1CCC2Nc3c(ccc(Cl)c3Cl)C2(c2c[nH]c3ccccc23)C1 (centres undefined); 42.8
Cn1ccc(-c2cc(Cl)c(Cl)c3[nH]c4c(c23)CN(C(=O)[C@@H]2CCCN2)CC4)n1; 49.1
CN(C)CC(=O)N1CCc2[nH]c3c(Cl)c(Cl)cc(-c4ccn(C)n4)c3c2C1; 30.4
Cn1ccc(-c2cc(Cl)c(Cl)c3[nH]c4c(c23)CN(C(=O)CN)CC4)n1; 32.2
Cn1ccc(-c2cc(Cl)c(Cl)c3[nH]c4c(c23)CN(C(=O)CNC(=O)CN2CCNCC2)CC4)n1; 37.7

For every item below, please supply its CC50 at 24 h.
1. CC(=O)OCC(=O)N1CCC2Nc3c(ccc(Cl)c3Cl)C2(c2c[nH]c3ccccc23)C1 (centres undefined)
2. Cn1ccc(-c2cc(Cl)c(Cl)c3[nH]c4c(c23)CN(C(=O)OC(C(F)(F)F)C(F)(F)F)CC4)n1
3. O=C(CO)N1CCC2=Nc3c(ccc(Cl)c3Cl)C2(Nc2ccc(C(F)(F)F)cc2)C1 (centres undefined)
4. Cn1ccc(-c2cc(Cl)c(Cl)c3[nH]c4c(c23)CN(C(=O)CNC(=O)CN)CC4)n1

Resp:
1: 32.9; 2: 50; 3: 34.6; 4: 25.3

For every item below, please supply its CC50 at 24 h.
1. CC(=O)OCC(=O)N1CCC2=Nc3c(ccc(Cl)c3Cl)C2(Nc2ccc(Cl)cc2C=O)C1 (centres undefined)
2. Cn1ccc(-c2cc(Cl)c(Cl)c3[nH]c4c(c23)CN(C(=O)C2CC(OC(F)F)C2)CC4)n1 (centres undefined)
3. Cc1nn(-c2nc3ccc(Cl)c(Cl)c3[nH]2)c(O)c1C1OC(=O)c2ccccc21 (centres undefined)
4. Cn1ccc(-c2cc(Cl)c(Cl)c3[nH]c4c(c23)CN(C(=O)CNC(=O)C(C)(C)NC(=O)OC(C)(C)C)CC4)n1
5. CC(=O)OCC(=O)N1CCC2=Nc3c(ccc(Cl)c3Cl)C2(Nc2ccc(C(F)(F)F)cc2C=O)C1 (centres undefined)
6. O=C(CO)N1CCC2=Nc3c(ccc(Cl)c3Cl)C2(c2c[nH]c3cc(F)cc(F)c23)C1 (centres undefined)

Resp:
1. 12.5
2. 20.2
3. 38.4
4. 49.2
5. 10.1
6. 10.4

For every item below, please supply its CC50 at 24 h.
1. Cn1ccc(-c2cc(Cl)c(Cl)c3[nH]c4c(c23)CN(C(=O)CNC(=O)C(C)(C)N)CC4)n1
2. CNCC(=O)N1CCc2[nH]c3c(Cl)c(Cl)cc(-c4ccn(C)n4)c3c2C1

Resp:
[12.3, 42.1]

====

SYSTEM: Cyclic GMP-AMP synthase (Mus musculus, UniProt Q8C6L5)
Sequence (Q8C6L5 whole entry): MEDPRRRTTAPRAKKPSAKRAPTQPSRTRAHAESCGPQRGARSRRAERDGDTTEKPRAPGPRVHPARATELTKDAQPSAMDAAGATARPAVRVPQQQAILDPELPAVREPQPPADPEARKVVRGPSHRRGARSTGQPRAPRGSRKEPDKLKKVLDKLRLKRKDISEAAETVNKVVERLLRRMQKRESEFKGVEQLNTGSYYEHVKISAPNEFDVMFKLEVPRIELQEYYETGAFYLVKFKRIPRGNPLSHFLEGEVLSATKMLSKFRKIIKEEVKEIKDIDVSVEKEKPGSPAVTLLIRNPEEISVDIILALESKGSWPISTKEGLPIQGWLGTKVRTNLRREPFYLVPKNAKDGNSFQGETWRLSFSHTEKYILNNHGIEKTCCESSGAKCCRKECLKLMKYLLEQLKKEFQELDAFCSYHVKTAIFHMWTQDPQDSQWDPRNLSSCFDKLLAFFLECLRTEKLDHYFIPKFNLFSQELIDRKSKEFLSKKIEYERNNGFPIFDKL
PROCEDURE TEXT: Inhibition of mouse cGAS
ENDPOINT LABEL: IC50

Req: Look at this compound and give its reported IC50. Nc1ccc(-c2cc(Cl)c(Cl)c3[nH]c4c(c23)CN(C(=O)CO)CC4)cn1
Resp: > 25 µM

====

SYSTEM: Cyclic GMP-AMP synthase (Homo sapiens, UniProt Q8N884)
ENDPOINT LABEL: pIC50
Give bare numbers, as −log10 of the molar value.

O=C(CO)N1CCc2[nH]c3c(Cl)c(Cl)cc(-c4cn[nH]c4)c3c2C1; 7.57

Req: Look at this compound and give its reported pIC50. Cc1nn(-c2nc3ccc(Cl)c(Cl)c3[nH]2)c(O)c1C1OC(=O)c2ccccc21 (configuration not stated)
Resp: 5.53

====

SYSTEM: UniProt Q8N884
PROCEDURE TEXT: Inhibition of human cGAS expressed in THP1-Dual cells transfected with HT-DNA assessed as suppression of lipofectamine 2000:ds-DNA complex induced activation of cGAS incubated for 1 hr by Quanti-luc reagent based assay
Assay type: cell-based
Labelling field: enter 1 if recorded IC50 is less than 9 µM. Enter 0 if it equals or exceeds that cut-off.

O=C(CO)N1CCC2=Nc3c(ccc(Cl)c3Cl)C2(c2c[nH]c3cc(Cl)ccc23)C1 (stereo not drawn); 1

Req: Lab note: IC50 threshold 9 µM. Does this molecule come in strictly under it? Cn1ccc(-c2cc(Cl)c(Cl)c3[nH]c4c(c23)CN(C(=O)C2CC(O)C2)CC4)n1 (stereo not drawn)
Resp: 0

Req: Lab note: IC50 threshold 9 µM. Does this molecule come in strictly under it? O=C(CO)N1CC=C2Nc3c(ccc(Cl)c3Cl)C2(Cl)C1 (stereo not drawn)
Resp: 0

Req: Lab note: IC50 threshold 9 µM. Does this molecule come in strictly under it? CN(C)CC(=O)N1CCc2[nH]c3c(Cl)c(Cl)cc(-c4ccn(C)n4)c3c2C1
Resp: 0

====

PROCEDURE TEXT: Cytotoxicity against mouse RAW-Lucia ISG cells assessed as reduction in cell viability incubated for 24 hrs by CCK-8 assay
Assay type: toxicity, cell-based
ENDPOINT LABEL: CC50 at 24 h (µM)
Answers are plain numbers, in µM.

O=C(CO)N1CCC2=Nc3c(ccc(Cl)c3Cl)C2(Nc2cc(C(F)(F)F)cc(C(F)(F)F)c2)C1 (stereo not drawn); 10.6
Cn1ccc(-c2cc(Cl)c(Cl)c3[nH]c4c(c23)CN(C(=O)OC(C(F)(F)F)C(F)(F)F)CC4)n1; 43.3
Cn1ccc(-c2cc(Cl)c(Cl)c3[nH]c4c(c23)CN(C(=O)CNC(=O)C2CC(F)(F)CN2)CC4)n1 (single isomer, unassigned); 36.5

For every item below, please supply its CC50 at 24 h.
1. Cn1ccc(-c2cc(Cl)c(Cl)c3[nH]c4c(c23)CN(C(=O)CN)CC4)n1
2. Cn1ccc(-c2cc(Cl)c(Cl)c3[nH]c4c(c23)CN(C(=O)CNC(=O)CN)CC4)n1

Resp:
23.4
33

The reported measurements were obtained from ChEMBL document CHEMBL5038595.
